System Tested: UniProt P56450
Sequence (P56450 whole entry): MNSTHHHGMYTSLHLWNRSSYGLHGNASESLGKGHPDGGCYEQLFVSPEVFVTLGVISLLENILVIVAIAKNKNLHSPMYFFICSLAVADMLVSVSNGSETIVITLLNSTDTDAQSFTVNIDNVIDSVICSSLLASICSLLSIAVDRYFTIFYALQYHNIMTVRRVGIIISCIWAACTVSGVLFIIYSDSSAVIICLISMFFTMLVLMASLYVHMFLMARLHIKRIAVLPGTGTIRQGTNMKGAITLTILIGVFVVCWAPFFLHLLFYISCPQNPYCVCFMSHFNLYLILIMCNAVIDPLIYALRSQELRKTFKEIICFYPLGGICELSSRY
Test Name: Antagonist activity at mouse melanocortin-4 receptor transfected in HEK293 cells assessed as inhibition of MTII-induced response after 6 hrs by Schild analysis
Assay type: cell-based
Measurement Parameters: read-out: pA2 (converted)
Binary label based on Kb with cut-off 80 nM: below gives true (1), not below gives false (0).

Bench note: check whether CC(=O)N[C@@H](Cc1c[nH]c2ccccc12)C(=O)N[C@H](Cc1ccc(I)cc1)C(=O)N[C@@H](CCCNC(=N)N)C(=O)N[C@H](Cc1ccc2ccccc2c1)C(N)=O shows Kb below 80 nM
true (1)

In plain terms, does CC(=O)N[C@@H](Cc1c[nH]c2ccccc12)C(=O)N[C@H](Cc1ccc(I)cc1)C(=O)N[C@@H](CCCNC(=N)N)C(=O)N[C@@H](Cc1ccc2ccccc2c1)C(N)=O come in under 80 nM for Kb?
true (1)

Problem: For the molecule CC(=O)N[C@@H](Cc1c[nH]c2ccccc12)C(=O)N[C@H](Cc1ccc(I)cc1)C(=O)N[C@@H](CCCNC(=N)N)C(=O)N[C@@H](Cc1ccc(-c2ccccc2)cc1)C(N)=O , is Kb under 80 nM?
false (0)

In the record for CC(=O)N[C@@H](Cc1c[nH]c2ccccc12)C(=O)N[C@H](Cc1ccc(I)cc1)C(=O)N[C@@H](CCCNC(=N)N)C(=O)N1Cc2ccccc2C[C@H]1C(N)=O , is Kb less than 80 nM?
false (0)

Strictly below 80 nM: is that where Kb of CC(=O)N[C@@H](Cc1c[nH]c2ccccc12)C(=O)N[C@H](Cc1ccc(I)cc1)C(=O)N[C@@H](CCCNC(=N)N)C(=O)N[C@@H](Cc1ccccc1)C(N)=O sits?
false (0)

###

System Tested: Melanocyte-stimulating hormone receptor (Mus musculus)
Sequence (Q01727 whole entry): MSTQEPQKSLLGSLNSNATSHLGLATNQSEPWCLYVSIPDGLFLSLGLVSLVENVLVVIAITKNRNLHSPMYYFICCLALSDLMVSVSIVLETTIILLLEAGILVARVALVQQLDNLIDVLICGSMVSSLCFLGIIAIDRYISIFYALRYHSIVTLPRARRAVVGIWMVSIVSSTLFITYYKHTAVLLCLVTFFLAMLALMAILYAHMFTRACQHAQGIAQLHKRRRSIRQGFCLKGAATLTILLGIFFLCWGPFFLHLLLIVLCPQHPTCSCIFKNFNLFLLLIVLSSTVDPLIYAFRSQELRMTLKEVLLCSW
Test Name: Agonist activity at mouse melanocortin-1 receptor transfected in HEK293 cells after 6 hrs by beta-galactosidase reporter gene assay
Where a SMILES comes first, the peptide text is derived from it. [ ]: non-standard residue; d: D form. dPhe(4-I) = N[C@H](Cc1ccc(I)cc1)C(=O)O
Provide the reported EC50 of each item.

Return reported EC50. Input compound: CC(=O)N[C@@H](Cc1c[nH]c2ccccc12)C(=O)N[C@H](Cc1ccc(I)cc1)C(=O)N[C@@H](CCCNC(=N)N)C(=O)N[C@H](Cc1ccc2ccccc2c1)C(N)=O
5.8 µM

Respond only with EC50 recorded for CC(=O)N[C@@H](Cc1c[nH]c2ccccc12)C(=O)N[C@H](Cc1ccc(I)cc1)C(=O)N[C@@H](CCCNC(=N)N)C(=O)N[C@@H](Cc1c[nH]c2ccccc12)C(N)=O (Ac-W[dPhe(4-I)]RW-NH2)
2 µM

Report EC50 for CC(=O)N[C@@H](Cc1c[nH]c2ccccc12)C(=O)N[C@H](Cc1ccc(I)cc1)C(=O)N[C@@H](CCCNC(=N)N)C(=O)N[C@@H](Cc1ccc(-c2ccccc2)cc1)C(N)=O
20.7 µM

###

System Tested: Melanocortin receptor 5 (Mus musculus, UniProt P41149)
Sequence (P41149 whole entry): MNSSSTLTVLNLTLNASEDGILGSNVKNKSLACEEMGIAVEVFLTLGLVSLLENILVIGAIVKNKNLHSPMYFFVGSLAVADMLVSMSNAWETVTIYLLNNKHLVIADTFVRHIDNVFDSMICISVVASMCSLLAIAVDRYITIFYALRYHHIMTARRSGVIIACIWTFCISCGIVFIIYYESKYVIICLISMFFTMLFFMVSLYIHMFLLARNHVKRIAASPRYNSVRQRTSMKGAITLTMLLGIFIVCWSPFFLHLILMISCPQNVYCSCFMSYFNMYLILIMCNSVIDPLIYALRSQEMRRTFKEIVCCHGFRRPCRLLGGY
Test Name: Agonist activity at mouse melanocortin-5 receptor transfected in HEK293 cells after 6 hrs by beta-galactosidase reporter gene assay
Could you please report measured pEC50 for the items listed next?
# pEC50 = -log10(concentration in molar units)

State measured pEC50 of the compound CC(=O)N[C@@H](Cc1c[nH]c2ccccc12)C(=O)N[C@H](Cc1ccc(I)cc1)C(=O)N[C@@H](CCCNC(=N)N)C(=O)N[C@@H](Cc1csc2ccccc12)C(N)=O with Melanocortin receptor 5 (Mus musculus, UniProt P41149).
4.63

Report pEC50 from Melanocortin receptor 5 (Mus musculus, UniProt P41149) testing of CC(=O)N[C@@H](Cc1c[nH]c2ccccc12)C(=O)N[C@H](Cc1ccc(I)cc1)C(=O)N[C@@H](CCCNC(=N)N)C(=O)N[C@@H](Cc1ccccc1)C(N)=O
5.74

Find the measured pEC50 of CC(=O)N[C@@H](Cc1c[nH]c2ccccc12)C(=O)N[C@H](Cc1ccc(I)cc1)C(=O)N[C@@H](CCCNC(=N)N)C(=O)N[C@@H](Cc1ccc2ccccc2c1)C(N)=O with Melanocortin receptor 5 (Mus musculus, UniProt P41149) as test system.
4.69

Name the value of pEC50 reported for CC(=O)N[C@@H](Cc1c[nH]c2ccccc12)C(=O)N[C@H](Cc1ccc(I)cc1)C(=O)N[C@@H](CCCNC(=N)N)C(=O)N[C@H](Cc1ccc2ccccc2c1)C(N)=O when tested on Melanocortin receptor 5 (Mus musculus, UniProt P41149).
4.71

Under Melanocortin receptor 5 (Mus musculus, UniProt P41149), report pEC50 for CC(=O)N[C@@H](Cc1c[nH]c2ccccc12)C(=O)N[C@H](Cc1ccc(I)cc1)C(=O)N[C@@H](CCCNC(=N)N)C(=O)N[C@@H](Cc1ccc(-c2ccccc2)cc1)C(N)=O
5.11

The reported measurements were obtained from ChEMBL document CHEMBL3421543.
